system: T1, human VPAC2 receptor (human, UniProt P41587 24-438)
T1 sequence (looked up): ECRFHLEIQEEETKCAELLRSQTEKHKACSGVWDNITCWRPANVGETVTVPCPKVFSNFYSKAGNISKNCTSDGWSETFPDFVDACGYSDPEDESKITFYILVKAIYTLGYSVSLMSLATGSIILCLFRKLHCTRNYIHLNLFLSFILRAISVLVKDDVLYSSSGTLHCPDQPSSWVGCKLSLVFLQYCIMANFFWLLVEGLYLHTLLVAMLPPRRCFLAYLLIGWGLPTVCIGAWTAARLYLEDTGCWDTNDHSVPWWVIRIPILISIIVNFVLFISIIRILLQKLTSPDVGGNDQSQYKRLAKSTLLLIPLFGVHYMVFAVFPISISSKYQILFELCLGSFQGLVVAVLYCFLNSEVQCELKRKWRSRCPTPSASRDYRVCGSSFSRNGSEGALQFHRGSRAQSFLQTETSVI
assay_method_text: cell-based or functional assay
Where no end group is shown, it is not given here. [ ]: non-standard residue; d: D form. The star is where a group is joined. Orn = NCCC[C@H](N)C(=O)O; Hexanoyl = CCCCCC(=O)*; Aib = CC(C)(N)C(=O)O
For each of the binders below, state its EC50 cAMP, Alpha Screen.
The response must be a number in nM with no trailing unit.

Exercise: Name the recorded EC50 cAMP, Alpha Screen for HSDAVFTDNYTRLRKQVAAKKYLQSIKNKRF [P34] .
Solution: 2.44

Exercise: Name the recorded EC50 cAMP, Alpha Screen for Hexanoyl-HSDAVFTDNYTRLR[Orn]QVAAKKYLQSIKNKRYGGPSSGAPPPS (ends and bridges not checked) [P307] .
Solution: 0.32

Exercise: Name the recorded EC50 cAMP, Alpha Screen for Hexanoyl-HSDAVFTDNYTRL[Orn][Aib]QVAA[Aib]KYLQSIKNKRYGGPSSGAPPPS (ends and bridges not checked) [P319] .
Solution: 0.26
